Cited source for all entries: the supplement of paper PMC11061612

System: C32 (Melanoma)
PROTOCOL: Bliss excess, mean over the matrix (fraction); higher = more synergy
Known Bliss excess of a selection of compounds
Simply state the number, no unit and no words.

As a guide, the following entries are already answered.
-- ask Which Bliss excess is listed for CN(C)CCCOc1ccc(-c2ccc3ncc4c(c3c2)n(C2CCOCC2)c(=O)n4C)cn1 [AZD0156] + C=CCn1c(=O)c2cnc(Nc3ccc(N4CCN(C)CC4)cc3)nc2n1-c1cccc(C(C)(C)O)n1 [AZD1775] (first compound max 1 µM, partner max 1 µM) ?
-- reply -0.0348

-- ask What measured Bliss excess goes with Cc1c2c(nn1C)CSCc1cc(n(C)n1)CSc1cc(c3ccccc3c1)OCCCc1c(C(=O)O)n(C)c3c-2c(Cl)ccc13 [AZD5991] + C=CCn1c(=O)c2cnc(Nc3ccc(N4CCN(C)CC4)cc3)nc2n1-c1cccc(C(C)(C)O)n1 [AZD1775] (first compound max 1 µM, partner max 1 µM) ?
-- reply 0.0452

-- ask Record request: Bliss excess value, item CC1(C)CCC(CN2CCN(c3ccc(C(=O)NS(=O)(=O)c4ccc(NCC5CCOCC5)c([N+](=O)[O-])c4)c(Oc4cnc5[nH]ccc5c4)c3)CC2)=C(c2ccc(Cl)cc2)C1 [Venetoclax] + C1CN(CCC1(C(=O)N[C@@H](CCO)C2=CC=C(C=C2)Cl)N)C3=NC=NC4=C3C=CN4 [Capivasertib] (first compound max 1 µM, 7x7, partner max 3 µM)
-- reply -0.0483

Now consider the entry below.
-- ask Looking for the measured Bliss excess of N#Cc1cnc(Nc2cc(NC[C@H]3CNCCO3)c(C(F)(F)F)cn2)cn1 [SRA737] + Nc1ccn([C@@H]2O[C@H](CO)[C@@H](O)C2(F)F)c(=O)n1 [Gemcitabine] (first compound max 10 µM, 7x7, partner max 0.3 µM) , can you help?
-- reply -0.0986

###

Tested on: HT-3 (Cervical Carcinoma)
PROTOCOL: combination Emax (second highest fraction inhibited in the dose matrix, 72 h); higher = more inhibition; extreme values may be limits of the assay
Quick reference: combination Emax of the listed items.

Consider the following illustrative entries.
-- ask Value lookup for combination Emax; key = COc1cccc(OCCCN)c1-c1cc(Nc2cnc(C#N)cn2)n[nH]1 [Prexasertib] + C=CCn1c(=O)c2cnc(Nc3ccc(N4CCN(C)CC4)cc3)nc2n1-c1cccc(C(C)(C)O)n1 [AZD1775] (first compound max 1 µM, partner max 1 µM)
-- reply 0.75

-- ask Dear colleague, I am looking for the recorded combination Emax of the following compound: CS(=O)(=O)CCNCc1ccc(-c2ccc3ncnc(Nc4ccc(OCc5cccc(F)c5)c(Cl)c4)c3c2)o1 [Lapatinib] + C[C@@H](Oc1cc(-c2cnn(C3CCNCC3)c2)cnc1N)c1c(Cl)ccc(F)c1Cl [Crizotinib] (first compound max 10 µM, 7x7, partner max 10 µM)
-- reply 0.234

Next:
-- ask Form field: reported combination Emax of CN(CCO)CC[C@H](CSc1ccccc1)Nc1ccc(S(=O)(=O)NC(=O)c2ccc(N3CCC([C@@H](O)c4ccccc4-c4ccc(Cl)cc4)CC3)cc2)cc1S(=O)(=O)C(F)(F)F [AZD4320] + C[C@@H]1COCCN1C2=NC(=NC(=C2)C3(CC3)[S@](=N)(=O)C)C4=C5C=CNC5=NC=C4 [AZD6738] (first compound max 1 µM, 7x7, partner max 10 µM)
-- reply 0.764

###

System: BT-474 (Breast Carcinoma)
PROTOCOL: combination Emax (second highest fraction inhibited in the dose matrix, 72 h); higher = more inhibition; extreme values may be limits of the assay
Form field: combination Emax (one value per entry).
Lab note: jot the number down without any unit.

-- ask Fill in the blank: the reported combination Emax of NC1(C(=O)N[C@@H](CCO)c2ccc(Cl)cc2)CCN(c2ncnc3[nH]ccc23)CC1 [Capivasertib] + COc1nnc2ccc(N3CCC(c4ccc(OCCN5CCN(C)C(=O)[C@H]5C)cc4)CC3)nn12 [AZD5153] (first compound max 10 µM, 7x7, partner max 1 µM) is ____.
-- reply 0.416

-- ask What value of combination Emax has been recorded for this entry: COc1nnc2ccc(N3CCC(c4ccc(OCCN5CCN(C)C(=O)[C@H]5C)cc4)CC3)nn12 [AZD5153] + Cn1cnc2c(F)c(Nc3ccc(Br)cc3Cl)c(C(=O)NOCCO)cc21 [Selumetinib] (first compound max 1 µM, 7x7, partner max 10 µM)
-- reply 0.385

-- ask Please give the measured combination Emax for this compound: CN(C)CCCOc1ccc(-c2ccc3ncc4c(c3c2)n(C2CCOCC2)c(=O)n4C)cn1 [AZD0156] + CCN(CCO)CCCOc1ccc2c(Nc3cc(CC(=O)Nc4cccc(F)c4)[nH]n3)ncnc2c1 [AZD2811] (first compound max 1 µM, 7x7, partner max 1 µM)
-- reply 0.0605

-- ask What does the record list as combination Emax for NC1(C(=O)N[C@@H](CCO)c2ccc(Cl)cc2)CCN(c2ncnc3[nH]ccc23)CC1 [Capivasertib] + CC(C)n1c(=O)n(C)c2cnc3cc(F)c(-c4ccc(OCCCN5CCCCC5)nc4)cc3c21 [AZD1390] (first compound max 10 µM, 7x7, partner max 0.3 µM) ?
-- reply 0.299

###

Tested on: SBC-5 (Small Cell Lung Carcinoma)
PROTOCOL: combination Emax (second highest fraction inhibited in the dose matrix, 72 h); higher = more inhibition; extreme values may be limits of the assay
Entries and their combination Emax values follow.
The reply should be a number, written without any unit.

-- ask Item under review: C[C@@H](c1ccc2nccn2c1)n1nnc2ncc(-c3cnn(C)c3)nc21 [Savolitinib] + CN(CC[C@H](CSC1=CC=CC=C1)NC2=C(C=C(C=C2)S(=O)(=O)NC(=O)C3=CC=C(C=C3)N4CCC(CC4)[C@H](C5=CC=CC=C5C6=CC=C(C=C6)Cl)O)S(=O)(=O)C(F)(F)F)CCO [AZD4320] (first compound max 1 µM, 7x7, partner max 1 µM) . Reported combination Emax?
-- reply 0.326

-- ask Any idea what combination Emax was measured for CN(C)CCCOc1ccc(-c2ccc3ncc4c(c3c2)n(C2CCOCC2)c(=O)n4C)cn1 [AZD0156] + C=CCn1c(=O)c2cnc(Nc3ccc(N4CCN(C)CC4)cc3)nc2n1-c1cccc(C(C)(C)O)n1 [AZD1775] (first compound max 1 µM, partner max 1 µM) ?
-- reply 0.423

-- ask Can you share its combination Emax? I mean this compound: COc1nnc2ccc(N3CCC(c4ccc(OCCN5CCN(C)C(=O)[C@H]5C)cc4)CC3)nn12 [AZD5153] + Cc1c2c(nn1C)CSCc1cc(n(C)n1)CSc1cc(c3ccccc3c1)OCCCc1c(C(=O)O)n(C)c3c-2c(Cl)ccc13 [AZD5991] (first compound max 1 µM, 7x7, partner max 1 µM)
-- reply 0.988

###

System: MRK-nu-1 (Breast Carcinoma)
PROTOCOL: Bliss excess, mean over the matrix (fraction); higher = more synergy
Cut-off 0.006 on Bliss excess, inclusive. At or above means Y; below means N.

-- ask Exam item: decide whether the reported Bliss excess for C[C@@H]1COCCN1c1cc(C2([S@](C)(=N)=O)CC2)nc(-c2ccnc3[nH]ccc23)n1 [AZD6738] + O=C(c1cc(Cc2n[nH]c(=O)c3ccccc23)ccc1F)N1CCN(C(=O)C2CC2)CC1 [Olaparib] (first compound max 10 µM, 7x7, partner max 10 µM) is at least 0.006.
-- reply Y

-- ask Check the entry CCN(CCO)CCCOc1ccc2c(Nc3cc(CC(=O)Nc4cccc(F)c4)[nH]n3)ncnc2c1 [AZD2811] + O=C(c1cc(Cc2n[nH]c(=O)c3ccccc23)ccc1F)N1CCN(C(=O)C2CC2)CC1 [Olaparib] (first compound max 1 µM, 7x7, partner max 10 µM) : does Bliss excess equal or exceed 0.006?
-- reply N

-- ask Given Cc1c2c(nn1C)CSCc1cc(n(C)n1)CSc1cc(c3ccccc3c1)OCCCc1c(C(=O)O)n(C)c3c-2c(Cl)ccc13 [AZD5991] + CC1(C)CCC(CN2CCN(c3ccc(C(=O)NS(=O)(=O)c4ccc(NCC5CCOCC5)c([N+](=O)[O-])c4)c(Oc4cnc5[nH]ccc5c4)c3)CC2)=C(c2ccc(Cl)cc2)C1 [Venetoclax] (first compound max 1 µM, 7x7, partner max 1 µM) , state whether its Bliss excess is at least 0.006.
-- reply Y

-- ask Does the compound C[C@@H]1COCCN1c1cc(C2([S@](C)(=N)=O)CC2)nc(-c2ccnc3[nH]ccc23)n1 [AZD6738] + C1CC(C1)(C(=O)[O-])C(=O)[O-].N.N.[Pt+2] [Carboplatin] (first compound max 10 µM, 7x7, partner max 10 µM) have recorded Bliss excess that is 0.006 or more?
-- reply N

-- ask Record COc1nnc2ccc(N3CCC(c4ccc(OCCN5CCN(C)C(=O)[C@H]5C)cc4)CC3)nn12 [AZD5153] + C=CCn1c(=O)c2cnc(Nc3ccc(N4CCN(C)CC4)cc3)nc2n1-c1cccc(C(C)(C)O)n1 [AZD1775] (first compound max 1 µM, partner max 1 µM) ; criterion: Bliss excess no lower than 0.006. Met?
-- reply N

Others:
-- ask Could you please find out whether NC1(C(=O)N[C@@H](CCO)c2ccc(Cl)cc2)CCN(c2ncnc3[nH]ccc23)CC1 [Capivasertib] + COc1nnc2ccc(N3CCC(c4ccc(OCCN5CCN(C)C(=O)[C@H]5C)cc4)CC3)nn12 [AZD5153] (first compound max 10 µM, 7x7, partner max 1 µM) has Bliss excess that meets 0.006 or exceeds it?
-- reply N

-- ask Hi, just wondering whether C=CCn1c(=O)c2cnc(Nc3ccc(N4CCN(C)CC4)cc3)nc2n1-c1cccc(C(C)(C)O)n1 [AZD1775] + C1CN(CCC1(C(=O)N[C@@H](CCO)C2=CC=C(C=C2)Cl)N)C3=NC=NC4=C3C=CN4 [Capivasertib] (first compound max 3 µM, partner max 3 µM) shows Bliss excess of 0.006 or higher.
-- reply N
